meta.source: PubChem BioAssay (NCI)

Test system: K-562 leukemia
Assay: NCI tumour cell line growth inhibition, 48 h
Reported TGI values are given for each entry in this list.
measured-endpoint: TGI

INSERT INTO measurements (compound, measured_endpoint, value) VALUES
  ('Cc1cc2c(=O)cc(-c3cccs3)oc2c(C(=O)O)c1C', 'TGI', '> 100 µM'),
  ('CNS(=O)(=O)NNS(=O)(=O)c1cccc([N+](=O)[O-])c1', 'TGI', '> 100 µM'),
  ('CCOC(=O)Nc1cc(NC(/C=N/NC(C)=O)C(=O)OCC)c(OC)cc1NC(C)=O (stereo not given)', 'TGI', '> 100 µM'),
  ('CC1=C(C(=O)CC(=O)C(=O)Nc2cccc(C)c2C)Sc2ccccc2N1', 'TGI', '> 100 µM'),
  ('O=C(/C=C/c1cccs1)c1ccc(Cl)cc1Cl', 'TGI', '56.4 µM'),
  ('CC(C)c1cc2c(c(O)c1O)[C@@]1(C)CCCC(C)(C)C1=C(O)C2', 'TGI', '4.13 µM'),
  ('CC(=O)c1c2c(cc3c1CC1(Cc4cc5c(cc4C1)CCCC5)C3)CCCC2', 'TGI', '29.4 µM'),
  ('CC(C)(Oc1ccc(Cl)cc1)C(=O)N(C(=O)N1CCN(c2ccccc2)CC1)c1ccccc1', 'TGI', '> 100 µM'),
  ('Brc1ccc(-c2[nH]c3ccccc3c2N=Nc2ccccc2)cc1', 'TGI', '> 100 µM'),
  ('Cc1cc2c(c3c1c1ccccc1n3C)C(=O)c1ccccc1C2=O', 'TGI', '> 100 µM');
